# Study System: human DLL4, full length, on cells (human, UniProt Q9NR61 27-685)
# Sequence (Q9NR61 27-685 limits assumed): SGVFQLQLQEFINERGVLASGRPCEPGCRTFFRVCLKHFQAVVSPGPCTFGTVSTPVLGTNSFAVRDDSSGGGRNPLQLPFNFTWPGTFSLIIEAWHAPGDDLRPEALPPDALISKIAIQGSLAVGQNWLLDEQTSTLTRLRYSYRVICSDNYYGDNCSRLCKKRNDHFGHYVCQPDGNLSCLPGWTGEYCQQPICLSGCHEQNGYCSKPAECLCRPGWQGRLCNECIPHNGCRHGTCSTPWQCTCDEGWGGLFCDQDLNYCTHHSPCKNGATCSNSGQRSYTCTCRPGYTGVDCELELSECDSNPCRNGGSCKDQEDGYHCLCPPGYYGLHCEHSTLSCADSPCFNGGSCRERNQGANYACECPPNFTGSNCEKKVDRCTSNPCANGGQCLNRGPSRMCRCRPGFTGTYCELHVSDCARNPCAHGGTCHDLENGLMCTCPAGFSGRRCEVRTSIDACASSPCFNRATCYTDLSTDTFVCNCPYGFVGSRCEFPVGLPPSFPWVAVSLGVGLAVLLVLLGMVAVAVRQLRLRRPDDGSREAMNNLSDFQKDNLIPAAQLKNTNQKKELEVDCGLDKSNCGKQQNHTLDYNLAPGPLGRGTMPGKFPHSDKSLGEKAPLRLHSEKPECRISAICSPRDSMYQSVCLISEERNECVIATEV
# Experiment Summary: cell-based or functional assay
Endpoint: Inhibition of Notch Activation via DLL4 cells, Notch reporter assay (nM)
Number in nM, nothing else.

Consider the following illustrative entries.
Enquiry: Quickly give me recorded Inhibition of Notch Activation via DLL4 cells, Notch reporter assay for h1A11.A6 (antibody, V domains shown, also called h1A11.A6 VH / h1A11VL.1) VH: EVQLVESGGGLVQPGGSLRLSCAASGFTFRHFPMAWVRQAPGKGLEWVATISSSDAWPSYRDSVKGRFTISRDNAKNSLYLQMNSLRAEDTAVYYCSRGYYNSPFAYWGQGTLVTVSS VL: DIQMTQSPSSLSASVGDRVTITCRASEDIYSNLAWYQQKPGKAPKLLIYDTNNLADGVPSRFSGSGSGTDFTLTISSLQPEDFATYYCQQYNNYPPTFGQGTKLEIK
Return: 0.746

Enquiry: Quickly give me recorded Inhibition of Notch Activation via DLL4 cells, Notch reporter assay for h1A11.A8 (antibody, V domains shown, also called h1A11.A8 VH / h1A11VL.1) VH: EVQLVESGGGLVQPGGSLRLSCAASGFTFGNFPMSWVRQAPGKGLEWVASISSSDSWATIGDSVKGRFTISRDNAKNSLYLQMNSLRAEDTAVYYCSRGYYNSPFAYWGQGTLVTVSS VL: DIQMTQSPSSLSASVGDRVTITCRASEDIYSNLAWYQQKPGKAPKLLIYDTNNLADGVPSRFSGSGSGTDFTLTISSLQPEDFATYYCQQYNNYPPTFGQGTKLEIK
Return: 1.33

Here's the next entry for you.
Enquiry: Quickly give me recorded Inhibition of Notch Activation via DLL4 cells, Notch reporter assay for h1A11.A2 (antibody, V domains shown, also called h1A11VH.1 / h1A11.A2 VL) VH: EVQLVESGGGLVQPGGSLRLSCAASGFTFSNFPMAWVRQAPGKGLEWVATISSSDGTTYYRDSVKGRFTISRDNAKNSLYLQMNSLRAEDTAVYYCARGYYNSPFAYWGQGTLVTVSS VL: DIQMTQSPSSLSASVGDRVTITCRASQDIYINLAWYQQKPGKSPKLLIFDTNDLADGVPSRFSGSGSGTDFTLTISSLQPEDFATYYCQQYDYVPPTFGQGTKLEIK
Return: 3.68
